experiment: total protein half-life in vivo (active degradation + dilution); higher = more stable protein; details: wild type E. coli NCM3722; growth: C-lim chemostat; doubling time 3 h
Reported Property: total protein half-life in vivo (h)
Your answer is read as h, so omit the unit and give the number.

Solved cases below.
[
  {
    "Item Sequence": "MNKRDAINHIRQFGGRLDRFRKSVGGSGDGGRNAPKRAKSSPKPVNRKTNVFNEQVRYAFHGALQDLKSKPFATFLTVMVIAISLTLPSVCYMVYKNVNQAATQYYPSPQITVYLQKTLDDDAAAGVVAQLQAEQGVEKVNYLSREDALGEFRNWSGFGGALDMLEENPLPAVAVVIPKLDFQGTESLNTLRDRITQINGIDEVRMDDSWFARLAALTGLVGRVSAMIGVLMVAAVFLVIGNSVRLSIFARRDSINVQKLIGATDGFILRPFLYGGALLGFSGALLSLILSEILVLRLSSAVAEVAQVFGTKFDINGLSFDECLLLLLVCSMIGWVAAWLATVQHLRHFTPE [P0AC30]",
    "total protein half-life in vivo (h)": 3.17
  },
  {
    "Item Sequence": "MTITSLDGYRWLKNDIIRGNFQPDEKLRMSLLTSRYALGVGPLREALSQLVAERLVTVVNQKGYRVASMSEQELLDIFDARANMEAMLVSLAIARGGDEWEADVLAKAHLLSKLEACDASEKMLDEWDLRHQAFHTAIVAGCGSHYLLQMRERLFDLAARYRFIWLRRTVLSVEMLEDKHDQHQTLTAAVLARDTARASELMRQHLLTPIPIIQQAMAGN",
    "total protein half-life in vivo (h)": 1.96
  },
  {
    "Item Sequence": "MAHRPRWTLSQVTELFEKPLLDLLFEAQQVHRQHFDPRQVQVSTLLSIKTGACPEDCKYCPQSSRYKTGLEAERLMEVEQVLESARKAKAAGSTRFCMGAAWKNPHERDMPYLEQMVQGVKAMGLEACMTLGTLSESQAQRLANAGLDYYNHNLDTSPEFYGNIITTRTYQERLDTLEKVRDAGIKVCSGGIVGLGETVKDRAGLLLQLANLPTPPESVPINMLVKVKGTPLADNDDVDAFDFIRTIAVARIMMPTSYVRLSAGREQMNEQTQAMCFMAGANSIFYGCKLLTTPNPEEDKDLQLFRKLGLNPQQTAVLAGDNEQQQRLEQALMTPDTDEYYNAAAL",
    "total protein half-life in vivo (h)": 0.803
  },
  {
    "Item Sequence": "MLAFCRSSLKSKKYIIILLALAAIAGLGTHAAWSSNGLPRIDNKTLARLAQQHPVVVLFRHAERCDRSTNQCLSDKTGITVKGTQDARELGNAFSADIPDFDLYSSNTVRTIQSATWFSAGKKLTVDKRLLQCGNEIYSAIKDLQSKAPDKNIVIFTHNHCLTYIAKDKRDATFKPDYLDGLVMHVEKGKVYLDGEFVNH",
    "total protein half-life in vivo (h)": 3
  }
]

Alright, here's another sequence for you.
Any idea what total protein half-life in vivo was measured for MKLDEIARLAGVSRTTASYVINGKAKQYRVSDKTVEKVMAVVREHNYHPNAVAAGLRAGRTRSIGLVIPDLENTSYTRIANYLERQARQRGYQLLIACSEDQPDNEMRCIEHLLQRQVDAIIVSTSLPPEHPFYQRWANDPFPIVALDRALDREHFTSVVGADQDDAEMLAEELRKFPAETVLYLGALPELSVSFLREQGFRTAWKDDPREVHFLYANSYEREAAAQLFEKWLETHPMPQALFTTSFALLQGVMDVTLRRDGKLPSDLAIATFGDNELLDFLQCPVLAVAQRHRDVAERVLEIVLASLDEPRKPKPGLTRIKRNLYRRGVLSRS [P0ACP1] ?
3.17
